- assay.system: human ACVR2A (human, UniProt P27037 20-135, limits assumed); further: test concentration or dose not given here
- Sequence (P27037 20-135 limits assumed): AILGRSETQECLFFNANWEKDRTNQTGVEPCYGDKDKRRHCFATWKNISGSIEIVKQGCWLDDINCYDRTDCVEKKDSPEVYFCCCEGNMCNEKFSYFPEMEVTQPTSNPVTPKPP
- protocol.summary: ELISA
- Protocol: The binding of ACVR2A-specific monoclonal antibodies to human ACVR2A, mouse ACVR2A, biotinylated goat anti-human kappa light chain (positive control) and human Fc (negative control) were determined by ELISA.

binder | optical density (OD)
376_C11 (antibody, V domains shown, VH/VL only) VH: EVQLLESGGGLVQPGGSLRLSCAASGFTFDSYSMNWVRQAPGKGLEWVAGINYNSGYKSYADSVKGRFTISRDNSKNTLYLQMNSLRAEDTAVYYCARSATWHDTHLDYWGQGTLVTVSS VL: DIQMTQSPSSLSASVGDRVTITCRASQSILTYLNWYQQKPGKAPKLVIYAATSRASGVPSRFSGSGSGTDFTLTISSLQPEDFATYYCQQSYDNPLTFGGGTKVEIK | 3.7
376_B06 (antibody, V domains shown, VH/VL only) VH: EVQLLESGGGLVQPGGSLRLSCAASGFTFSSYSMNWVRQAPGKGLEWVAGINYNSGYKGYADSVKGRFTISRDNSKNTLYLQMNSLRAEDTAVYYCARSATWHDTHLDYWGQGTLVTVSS VL: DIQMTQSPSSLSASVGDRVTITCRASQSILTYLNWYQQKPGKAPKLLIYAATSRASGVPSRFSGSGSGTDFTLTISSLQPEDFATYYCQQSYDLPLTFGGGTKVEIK | 3.7
374_E08 (antibody, V domains shown, VH/VL only) VH: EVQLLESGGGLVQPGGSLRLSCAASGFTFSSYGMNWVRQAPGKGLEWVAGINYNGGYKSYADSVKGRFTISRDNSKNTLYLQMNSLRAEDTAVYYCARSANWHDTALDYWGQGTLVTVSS VL: DIQMTQSPSSLSASVGDRVTITCRASQSILSYLNWYQQKPGKAPKLLIYAATSRHSGVPSRFSGSGSGTDFTLTISSLQPEDFATYYCQQSYDLPLTFGGGTKVEIK | 3.5
